# System: SARS-CoV-2
# measurementNotes: Antiviral activity against SARS CoV-2 USA-WA1/2020 infected in african green monkey Vero 76 cells assessed as virus-induced cytopathic effect incubated for 5 days by neutral red uptake assay
# Format: functional, organism-based
# appliedConditions: Severe acute respiratory syndrome coronavirus 2, USA-WA1/2020, Vero 76, 120 h
measureName: EC50

Request: Which EC50 is reported for this compound? CCCC(NC(=O)C(CC(C)C)NC(=O)OCc1ccccc1)C(=O)C(=O)NCc1ccccn1 (stereo unspecified)
Result: < 1 µM

###

# measurementNotes: Cytotoxicity against african green monkey Vero 76 cells assessed as reduction in cell viability incubated for 48 hrs by neutral red uptake assay
# Format: toxicity, cell-based
# appliedConditions: chlorocebus sabaeus
measureName: CC50 at 48 h

Request: Item under review: CCCC(NC(=O)C(CC(C)C)NC(=O)OCc1ccccc1)C(=O)C(=O)NCc1ccccn1 (stereo unspecified) . Reported CC50 at 48 h?
Result: > 50 µM

All figures here come from ChEMBL document CHEMBL5543154.
